Target: G12V-mutant human KRAS (amino acid residues 1-188) (Homo sapiens, UniProt P01116, G12V)
Construct: G12V-mutant human KRAS (amino acid residues 1-188) with FLAG tag was purified from E. coli; made in house; host or cells: E. coli
Test: KRAS Binding Competition Assay (AlphaScreen; biotinylated KRpep-2d analogue), G12V
Conditions: geometric mean, read-out: KRAS GMean IC50 (uM) MUTATION: G12V
OBSERVATION_TYPE: IC50

[[record]]
compound = "CN1CCC[C@H]1COc1nc(N2[C@@H]3CC[C@H]2CN(C(=O)CCC2CCCCN2)C3)c2ccc(-c3cc(O)cc4ccccc34)cc2n1 (stereo partly drawn)"
endpoint_result = "10 to 100 µM"

[[record]]
compound = "Oc1cc(-c2ncc3c(N4C[C@H]5CC[C@@H](C4)N5)nc(OCC45CCCN4CCC5)nc3c2F)c2ccccc2c1"
endpoint_result = "0.0001 to 10 µM"

[[record]]
compound = "CN1CCC[C@H]1COc1nc(N2C[C@H]3CC[C@@H](C2)N3)c2ccc(-c3c[nH]c4cccc(Cl)c34)c(F)c2n1"
endpoint_result = "10 to 100 µM"

[[record]]
compound = "CN1CCC[C@H]1CNc1nc(N2C[C@H]3CC[C@@H](C2)N3)c2ccc(-c3cc(O)cc4ccccc34)cc2n1"
endpoint_result = "10 to 100 µM"

[[record]]
compound = "CN(C)CCCC(=O)N1[C@@H]2CC[C@H]1CN(c1nc(OCC34CCCN3CCC4)nc3c(F)c(-c4cc(O)cc5ccccc45)ccc13)C2"
endpoint_result = "0.0001 to 10 µM"

[[record]]
compound = "CN1CCC[C@H]1COc1nc(N2[C@@H]3CC[C@H]2CNC3)c2ccc(-c3cncc(Br)c3Cl)cc2n1"
endpoint_result = "10 to 100 µM"

[[record]]
compound = "CN1CCC[C@H]1COc1nc(N2C[C@H]3CC[C@@H](C2)N3C2CNC2)c2ccc(-c3cc(O)cc4ccccc34)c(F)c2n1"
endpoint_result = "100 to 1000 µM"

[[record]]
compound = "CCc1cccc2[nH]cc(-c3ccc4c(N5C[C@H]6CC[C@@H](C5)N6)nc(OC[C@@]56CCCN5C[C@H](F)C6)nc4c3F)c12"
endpoint_result = "0.0001 to 10 µM"

[[record]]
compound = "CN(C)Cc1nc(N2C[C@H]3CC[C@@H](C2)N3)c2cc(Cl)c(-c3c(O)cccc3F)c(F)c2n1"
endpoint_result = "10 to 100 µM"

[[record]]
compound = "CN1CCN(CCCC(=O)N2C3CCC2CN(c2nc(OC[C@@H]4CCCN4C)nc4c(F)c(-c5cc(O)cc6ccccc56)ccc24)CC3)CC1 (stereo partly drawn)"
endpoint_result = "10 to 100 µM"

[[record]]
compound = "OCC1(COc2nc(N3C[C@H]4CC[C@@H](C3)N4)c3ccc(-c4cc(O)cc5ccccc45)c(F)c3n2)CC1"
endpoint_result = "10 to 100 µM"

[[record]]
compound = "CN1CCN(CCC(=O)N2[C@@H]3CC[C@H]2CN(c2nc(OC[C@@H]4CCCN4C)nc4cc(-c5cc(O)cc6ccccc56)ccc24)C3)CC1"
endpoint_result = "10 to 100 µM"

